Where do these numbers come from? They come from ChEMBL document CHEMBL6182859.

test: Cytotoxicity against human MT4 cells assessed as reduction in cell viability measured after 4 days by CellTiter 96 Aqueous One Solution Cell Proliferation Assay
Type: toxicity, cell-based
reported conditions: time 4 day
observation type: CC50 at 96 h (µM)

>>> print(df.to_string())
                                   compound  meas_value
0  C/C1=C\[C@@H]2[C@H](CC/C(CSC(=O)Oc3ccc(Cl)cc3)=C\C3[C@@H](O)[C@@H](C)C[C@]3(O)C1=O)C2(C)C (stereo partly specified)        45.4
1  COc1ccc(OC(=O)SC/C2=C/C3[C@@H](O)[C@@H](C)C[C@]3(O)C(=O)/C(C)=C/[C@@H]3[C@H](CC2)C3(C)C)cc1 (stereo partly specified)        47.4
2  C/C1=C\[C@@H]2[C@H](CC/C(CSC(=O)Oc3ccccc3Br)=C\C3[C@@H](O)[C@@H](C)C[C@]3(O)C1=O)C2(C)C (stereo partly specified)        45.2
3  C/C1=C\[C@@H]2[C@H](CC/C(CSC(=O)Oc3ccccc3)=C\C3[C@@H](O)[C@@H](C)C[C@]3(O)C1=O)C2(C)C (stereo partly specified)        13.1
4  C/C1=C\[C@@H]2[C@H](CC/C(CSC(=O)Oc3cc(F)cc(F)c3)=C\C3[C@@H](O)[C@@H](C)C[C@]3(O)C1=O)C2(C)C (stereo partly specified)          45
5  C/C1=C\[C@@H]2[C@H](CC/C(CSC(=O)Oc3ccc(C)cc3)=C\C3[C@@H](O)[C@@H](C)C[C@]3(O)C1=O)C2(C)C (stereo partly specified)        45.1
